From: ChEMBL document CHEMBL4732113

Listed here: items and their measured selectivity ratio.
- EXPERIMENT DESCRIPTION: Selectivity index, ratio of CC50 for human MT4 cells to EC50 for antiviral activity against HIV HIV1 RES056 harboring K103N/Y181C double mutant infected in human MT4 cells
- Assay type: toxicity, cell-based
- ASSAY CONDITIONS: read-out: Ratio CC50/EC50
MEASURED ENDPOINT: selectivity ratio

>>> result("Cc1cc(/C=C/C#N)cc(C)c1Oc1ccnc(Nc2ccc(CN3CCN(S(=O)(=O)C4CC4)CC3)cc2)n1")
"< 1"
>>> result("Cc1cc(/C=C/C#N)cc(C)c1Oc1ccnc(Nc2ccc(CN3CCS(=O)(=O)CC3)cc2)n1")
17
>>> result("C=CC(=O)N1CCN(Cc2ccc(Nc3nccc(Oc4c(C)cc(/C=C/C#N)cc4C)n3)cc2)CC1")
"< 1"
>>> result("Cc1cc(C#N)cc(C)c1Oc1ccnc(Nc2ccc(CN3CCS(=O)(=O)CC3)cc2)n1")
"< 1"
>>> result("Cc1cc(C#N)cc(C)c1Oc1ccnc(Nc2ccc(CN3CC[S+]([O-])CC3)cc2)n1")
"< 1"
>>> result("C=CC(=O)N1CCN(Cc2ccc(Nc3nccc(Oc4c(C)cc(C#N)cc4C)n3)cc2)CC1")
"< 1"
>>> result("Cc1cc(/C=C/C#N)cc(C)c1Oc1ccnc(Nc2ccc(CN3CCN(S(=O)(=O)N(C)C)CC3)cc2)n1")
"< 1"
>>> result("Cc1cc(/C=C/C#N)cc(C)c1Oc1ccnc(Nc2ccc(CN3CC[S+]([O-])CC3)cc2)n1")
9
>>> result("Cc1cc(/C=C/C#N)cc(C)c1Oc1ccnc(Nc2ccc(CN3CCCN(S(=O)(=O)C(C)C)CC3)cc2)n1")
"< 1"
>>> result("Cc1cc(/C=C/C#N)cc(C)c1Oc1ccnc(Nc2ccc(CN3CCN(S(=O)(=O)C(C)C)CC3)cc2)n1")
"< 1"
>>> result("Cc1cc(/C=C/C#N)cc(C)c1Oc1ccnc(Nc2ccc(CN3CCSCC3)cc2)n1")
4
>>> result("Cc1cc(C#N)cc(C)c1Oc1ccnc(Nc2ccc(CN3CCCN(S(=O)(=O)N(C)C)CC3)cc2)n1")
"< 1"
>>> result("CCS(=O)(=O)N1CCN(Cc2ccc(Nc3nccc(Oc4c(C)cc(/C=C/C#N)cc4C)n3)cc2)CC1")
5
